Exercise: for every item that follows, state its recorded Abs 630 (25 nM).
Biological target: T1, human IL-10 receptor (hIL-10R alpha and beta chains) on HEK-Blue IL-10 reporter cells (human, UniProt Q13651 22-578; Q08334 20-325)
T1 sequence 1: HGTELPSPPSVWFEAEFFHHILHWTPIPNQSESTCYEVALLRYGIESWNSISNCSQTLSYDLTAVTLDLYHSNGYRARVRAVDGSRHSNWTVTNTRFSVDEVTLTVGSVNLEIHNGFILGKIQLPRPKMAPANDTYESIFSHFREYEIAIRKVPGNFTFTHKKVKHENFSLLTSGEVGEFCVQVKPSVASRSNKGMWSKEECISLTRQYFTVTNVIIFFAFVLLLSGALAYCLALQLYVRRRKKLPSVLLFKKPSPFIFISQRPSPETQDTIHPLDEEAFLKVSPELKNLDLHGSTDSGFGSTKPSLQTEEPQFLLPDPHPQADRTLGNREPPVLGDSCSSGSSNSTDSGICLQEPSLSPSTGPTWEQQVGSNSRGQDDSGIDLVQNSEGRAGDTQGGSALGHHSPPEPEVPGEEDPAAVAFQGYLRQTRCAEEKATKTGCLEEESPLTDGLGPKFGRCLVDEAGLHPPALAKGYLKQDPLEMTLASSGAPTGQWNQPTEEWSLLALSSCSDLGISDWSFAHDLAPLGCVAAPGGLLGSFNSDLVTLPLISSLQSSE
T1 sequence 2: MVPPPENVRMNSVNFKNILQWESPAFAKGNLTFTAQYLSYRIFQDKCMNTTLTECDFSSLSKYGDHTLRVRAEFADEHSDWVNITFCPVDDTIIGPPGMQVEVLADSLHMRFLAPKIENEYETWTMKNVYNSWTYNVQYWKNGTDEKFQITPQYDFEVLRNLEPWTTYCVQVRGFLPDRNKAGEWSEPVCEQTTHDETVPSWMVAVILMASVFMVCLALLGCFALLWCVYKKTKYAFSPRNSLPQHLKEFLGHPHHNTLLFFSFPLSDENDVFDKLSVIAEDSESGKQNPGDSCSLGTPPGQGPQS
Experiment: cell-based or functional assay
Form entry: enter the amount, then its unit.

Input: I have this binder here, IL10R binding molecule of SEQ ID NO: 312 (bispecific antibody) QVQLQESGGGSVQAGGSLRLSCAASGYTYSSYCMGWFRQAPGKEREGVAHIDSDGSTSYADSVKGRFTISKDNAKNTLYLQMNSLKPEDTAMYYCAADPIPGPGYCDGGPNKYWGQGTQVTVSSGGGSQVQLQESGGGSVQAGGSLRLSCAASRYLYSIDYMAWFRQSPGKEREPVAVIYTASGATFYPDSVKGRFTISQDNAKMTVYLQMNSLKSEDTAMYYCAAVRKTDSYLFDAQSFTYWGQGTQVTVSSASHHHHHH , and I need its recorded Abs 630 (25 nM).
Output: 0.48 Abs 630

Input: Also check IL10R binding molecule of SEQ ID NO: 341 (bispecific antibody) QVQLQESGGGSVQAGGSLRLSCAASGYSYSSYCMGWFRQAPGKEREGVATIDSDGMTRYADSVKGRFTISKDNAKNTLYLQMNSLKPEDTAMYYCAAPLYDCDSGAVGRNPPYWGQGTQVTVSSGGGSQVQLQESGGGSVQAGGSLRLSCAASRFTYSSYCMGWFRQAPGKEREGVASIDSDGSTSYTDSVKGRFTISKDNAKNTLYLQMNSLKPEDTAMYYCALDLMSTVVPGFCGFLLSAGMDYWGKGTQVTVSSASHHHHHH
Output: 0.6 Abs 630

Input: Also check IL10R binding molecule of SEQ ID NO: 298 (bispecific antibody) QVQLQESGGGSVQAGGSLRLSCAASGYSNCSYDMTWYRQAPGKEREFVSAIHSDGSTRYADSVKGRFFISQDNAKNTVYLQMNSLKPEDTAMYYCKTDPLHCRAHGGSWYSVRANYWGQGTQVTVSSGGGSQVQLQESGGGSVQAGGSLRLSCAASGYTYSSGCMGWFRQAPGKEREAVAAINSDGSTSYADSVKGRFTISKDNAKNTLYLQMNSLKPEDTAMYYCAAEPYCSGGYPRWSVAEFGYWGQGTQVTVSSASHHHHHH
Output: 0.84 Abs 630
